target: Protein farnesyltransferase (Rattus norvegicus, UniProt Q02293+Q04631); assay: Inhibition of Farnesyltransferase from rat brain
Please provide measured pIC50 for the entries that follow.
// pIC50: -log10(molar conc.)

What measured pIC50 goes with C[C@@H]([C@H](C/C=C/c1nc2ccccc2o1)c1ccc2c(c1)OCO2)N(Cc1ccc2ccccc2c1)C(=O)[C@H]1OC(C(=O)[O-])(C(=O)[O-])O[C@@H]1C(=O)[O-].[Na+].[Na+].[Na+] ?
8.14

# repeat for CC(C(C/C=C/c1nc2ccccc2o1)c1ccc(Cl)cc1)N(Cc1ccc2ccccc2c1)C(=O)CC(CC(=O)O)C(=O)O (stereo unspecified)
7.55

# repeat for C[C@@H]([C@H](C/C=C/c1nc2ccccc2o1)c1ccc2c(c1)OCO2)N(Cc1ccc2ccccc2c1)C(=O)[C@@H]1OC(C(=O)O)(C(=O)O)O[C@@H]1C(=O)O
8.30

# repeat for C[C@H]([C@@H](C/C=C/c1nc2ccccc2o1)c1ccc2c(c1)OCO2)N(Cc1ccc2ccccc2c1)C(=O)[C@@H]1OC(C(=O)O)(C(=O)O)O[C@@H]1C(=O)O
8.22

# repeat for C[C@@H]([C@H](C/C=C/c1nc2ccccc2o1)c1ccc2c(c1)OCO2)N(Cc1ccc2ccccc2c1)C(=O)[C@@H]1OC(C(=O)O)(C(=O)O)O[C@H]1C(=O)O
8.41

# repeat for C[C@@H]([C@H](C/C=C/c1nc2ccccc2o1)c1ccc2c(c1)OCO2)N(Cc1ccc2ccccc2c1)C(=O)[C@H]1OC(C(=O)O)(C(=O)O)O[C@H]1C(=O)O
8.41
